Target: T1, lactate dehydrogenase (LDH)
T1 construct: Coated at 500 ng/well as non-specific target; also called LDH polypeptide
Assay: phage ELISA
measurement kind: LDH (OD)
Unit OD implied. Number only.

Known LDH (OD) results, listed for orientation:
{"binder": "YTPASILTGFQRGYEGAGNGAAAGAPVPYPDPLEPRP [DGI-2-20R-4-G7]", "assay value": 1.2}
{"binder": "RDHRYVGWGRATFRHDQSVWAAAGAPVPYPDPLEPRP [DGI-2-20F-PP-H1]", "assay value": 1.2}
{"binder": "RDTMCGSVSWGIPGCEYSGMAAAGAPVPYPDPLEPRP [DGI-2-20R-4-G122]", "assay value": 1.1}
{"binder": "VSGVPDGSMRAAQLASGYWCAAAGAPVPYPDPLEPRP [DGI-2-20F-PP-G2]", "assay value": 1.1}

Specify measured LDH (OD) for RSYPRLCKQKGGVIGRMLPGAAAGAPVPYPDPLEPRP [DGI-2-20F-PP-B2] .
1.1
